- Tested on: HDLM-2 (Hodgkin's Lymphoma)
- assay-summary: combination Emax (second highest fraction inhibited in the dose matrix, 72 h); higher = more inhibition; extreme values may be limits of the assay
Here the recorded combination Emax is given for each entry.
Give the figure only, with no unit attached.

# compound, test-target, combination Emax
rows = [
    ("C[C@@H](Nc1cc(F)cc(F)c1)c1cc(C(=O)N(C)C)cc2c(=O)cc(N3CCOCC3)oc12 [AZD8186] + CC(=O)c1c(C)c2cnc(Nc3ccc(N4CCNCC4)cn3)nc2n(C2CCCC2)c1=O [Palbociclib] (first compound max 10 µM, 7x7, partner max 10 µM)", "HDLM-2 (Hodgkin's Lymphoma)", 0.333),
    ("Cn1cnc2c(F)c(Nc3ccc(Br)cc3Cl)c(C(=O)NOCCO)cc21 [Selumetinib] + C[C@@H]1COCCN1C2=NC(=NC(=C2)C3(CC3)[S@](=N)(=O)C)C4=C5C=CNC5=NC=C4 [AZD6738] (first compound max 10 µM, 7x7, partner max 10 µM)", "HDLM-2 (Hodgkin's Lymphoma)", 0.243),
    ("Cc1c2c(nn1C)CSCc1cc(n(C)n1)CSc1cc(c3ccccc3c1)OCCCc1c(C(=O)O)n(C)c3c-2c(Cl)ccc13 [AZD5991] + CC1(C)CCC(CN2CCN(c3ccc(C(=O)NS(=O)(=O)c4ccc(NCC5CCOCC5)c([N+](=O)[O-])c4)c(Oc4cnc5[nH]ccc5c4)c3)CC2)=C(c2ccc(Cl)cc2)C1 [Venetoclax] (first compound max 1 µM, 7x7, partner max 1 µM)", "HDLM-2 (Hodgkin's Lymphoma)", 1),
    ("O=C(c1cc(Cc2n[nH]c(=O)c3ccccc23)ccc1F)N1CCN(C(=O)C2CC2)CC1 [Olaparib] + CC1(C)CCC(CN2CCN(c3ccc(C(=O)NS(=O)(=O)c4ccc(NCC5CCOCC5)c([N+](=O)[O-])c4)c(Oc4cnc5[nH]ccc5c4)c3)CC2)=C(c2ccc(Cl)cc2)C1 [Venetoclax] (first compound max 10 µM, 7x7, partner max 1 µM)", "HDLM-2 (Hodgkin's Lymphoma)", 0.322),
    ("C[C@@H](Oc1cc(-c2cnn(C3CCNCC3)c2)cnc1N)c1c(Cl)ccc(F)c1Cl [Crizotinib] + CC1=C(C(=CC=C1)Cl)NC(=O)C2=CN=C(S2)NC3=CC(=NC(=N3)C)N4CCN(CC4)CCO [Dasatinib] (first compound max 10 µM, 7x7, partner max 2 µM)", "HDLM-2 (Hodgkin's Lymphoma)", 0.226),
]

API: the following record is the query input.
Input line: Assign combination Emax to the following record: Cc1c2c(nn1C)CSCc1cc(n(C)n1)CSc1cc(c3ccccc3c1)OCCCc1c(C(=O)O)n(C)c3c-2c(Cl)ccc13 [AZD5991] + CC(=O)O[C@H]1C(=O)[C@@]2(C)[C@H]([C@H](OC(=O)c3ccccc3)[C@]3(O)C[C@H](OC(=O)[C@H](O)[C@@H](NC(=O)c4ccccc4)c4ccccc4)C(C)=C1C3(C)C)[C@]1(OC(C)=O)CO[C@@H]1C[C@@H]2O [Paclitaxel] (first compound max 1 µM, 7x7, partner max 3 µM)
Output line: 0.996

---

- Tested on: SW1271 (Small Cell Lung Carcinoma)
- assay-summary: combination Emax (second highest fraction inhibited in the dose matrix, 72 h); higher = more inhibition; extreme values may be limits of the assay
Decision: combination Emax compared against 0.6; not below it gives Y, below it gives N.

# compound, class-assignment
data = [
    ("N#Cc1cnc(Nc2cc(NC[C@H]3CNCCO3)c(C(F)(F)F)cn2)cn1 [SRA737] + O=c1[nH]cc(F)c(=O)[nH]1 [5-Fluorouracil] (first compound max 10 µM, 7x7, partner max 20 µM)", "N"),
]

Input line: Is combination Emax at least 0.6? Consider CN(CCO)CC[C@H](CSc1ccccc1)Nc1ccc(S(=O)(=O)NC(=O)c2ccc(N3CCC([C@@H](O)c4ccccc4-c4ccc(Cl)cc4)CC3)cc2)cc1S(=O)(=O)C(F)(F)F [AZD4320] + Nc1ccn([C@@H]2O[C@H](CO)[C@@H](O)C2(F)F)c(=O)n1 [Gemcitabine] (first compound max 1 µM, 7x7, partner max 0.3 µM)
Output line: Y

Input line: Is combination Emax at least 0.6? Consider C=CCn1c(=O)c2cnc(Nc3ccc(N4CCN(C)CC4)cc3)nc2n1-c1cccc(C(C)(C)O)n1 [AZD1775] + CCc1c2c(nc3ccc(O)cc13)-c1cc3c(c(=O)n1C2)COC(=O)[C@]3(O)CC [SN-38] (first compound max 1 µM, partner max 0.3 µM)
Output line: Y

Input line: Is combination Emax at least 0.6? Consider C[C@@H](Oc1cc(-c2cnn(C3CCNCC3)c2)cnc1N)c1c(Cl)ccc(F)c1Cl [Crizotinib] + CC1=C(C(=CC=C1)Cl)NC(=O)C2=CN=C(S2)NC3=CC(=NC(=N3)C)N4CCN(CC4)CCO [Dasatinib] (first compound max 10 µM, 7x7, partner max 2 µM)
Output line: Y

Input line: Is combination Emax at least 0.6? Consider CN(CCO)CC[C@H](CSc1ccccc1)Nc1ccc(S(=O)(=O)NC(=O)c2ccc(N3CCC([C@@H](O)c4ccccc4-c4ccc(Cl)cc4)CC3)cc2)cc1S(=O)(=O)C(F)(F)F [AZD4320] + Cc1cc2ncnn2cc1Nc1ncc2c(n1)n(C1CCOCC1)c(=O)n2C [AZD7648] (first compound max 1 µM, 7x7, partner max 10 µM)
Output line: N

Input line: Is combination Emax at least 0.6? Consider COc1nnc2ccc(N3CCC(c4ccc(OCCN5CCN(C)C(=O)[C@H]5C)cc4)CC3)nn12 [AZD5153] + C=CCn1c(=O)c2cnc(Nc3ccc(N4CCN(C)CC4)cc3)nc2n1-c1cccc(C(C)(C)O)n1 [AZD1775] (first compound max 1 µM, partner max 1 µM)
Output line: Y
